Target: EGFR L858R/T790M (Homo sapiens, UniProt P00533, L858R/T790M)
Sequence (P00533 25-1210 T790M/L858R): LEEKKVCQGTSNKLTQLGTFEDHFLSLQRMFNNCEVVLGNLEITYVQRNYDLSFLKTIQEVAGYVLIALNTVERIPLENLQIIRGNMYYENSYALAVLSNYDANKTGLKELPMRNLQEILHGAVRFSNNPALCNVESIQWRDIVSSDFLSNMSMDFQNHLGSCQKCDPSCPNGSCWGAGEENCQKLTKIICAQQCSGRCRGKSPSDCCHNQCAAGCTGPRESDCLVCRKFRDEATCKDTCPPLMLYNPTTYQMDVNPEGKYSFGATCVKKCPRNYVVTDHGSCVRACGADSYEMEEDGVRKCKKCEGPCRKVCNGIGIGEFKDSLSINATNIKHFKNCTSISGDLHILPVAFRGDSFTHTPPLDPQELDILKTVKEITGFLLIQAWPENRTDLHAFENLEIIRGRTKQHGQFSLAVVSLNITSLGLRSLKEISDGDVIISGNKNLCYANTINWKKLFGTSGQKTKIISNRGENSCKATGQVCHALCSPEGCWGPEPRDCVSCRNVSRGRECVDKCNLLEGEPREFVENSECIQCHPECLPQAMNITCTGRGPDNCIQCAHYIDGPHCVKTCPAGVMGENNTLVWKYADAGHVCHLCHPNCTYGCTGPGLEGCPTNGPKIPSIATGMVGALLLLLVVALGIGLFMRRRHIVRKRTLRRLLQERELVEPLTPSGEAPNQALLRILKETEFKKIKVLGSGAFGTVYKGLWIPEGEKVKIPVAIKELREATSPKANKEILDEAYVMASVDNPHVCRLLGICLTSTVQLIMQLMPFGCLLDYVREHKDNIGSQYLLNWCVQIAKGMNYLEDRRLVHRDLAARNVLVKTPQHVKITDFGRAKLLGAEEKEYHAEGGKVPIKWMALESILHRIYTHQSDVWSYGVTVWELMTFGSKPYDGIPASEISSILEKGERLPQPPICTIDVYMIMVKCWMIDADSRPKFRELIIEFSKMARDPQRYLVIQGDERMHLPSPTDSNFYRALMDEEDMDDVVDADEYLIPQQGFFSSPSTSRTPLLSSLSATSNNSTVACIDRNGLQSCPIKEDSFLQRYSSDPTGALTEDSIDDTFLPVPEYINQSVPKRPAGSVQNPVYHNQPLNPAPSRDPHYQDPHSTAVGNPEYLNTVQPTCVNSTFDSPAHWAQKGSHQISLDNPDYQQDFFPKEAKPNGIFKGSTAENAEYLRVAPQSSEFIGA
Assay: Kinase inhibitory activity against EGFR bearing the L858R/T790M double mutation
Assay type: biochemical
Settings: EGFR L858R/T790M double mutation; 10 μM ATP; read-out: IC50 for kinase inhibition, EGFR L858R T790M
Listed molecules paired with reported IC50

For orientation, consider the following solved cases.
> print(dat)
                                   molecule    reading
1  COc1ccc(NC(=O)C#CCN(C)C)cc1Nc1ncc(Cl)c(Nc2ccccc2P(C)(C)=O)n1 [Example 81]  < 0.05 µM
2  COc1ccc(NC(=O)/C=C/C2(NC(=O)OC(C)(C)C)CC2)cc1Nc1ncc(Cl)c(Nc2ccccc2P(C)(C)=O)n1 [Example 76]  ≥ 0.25 µM
3  COc1ccc(NC(=O)/C=C\C(=O)N2CCN(C)CC2)cc1Nc1ncc(Cl)c(Nc2ccccc2P(C)(C)=O)n1 [Example 63]  ≥ 0.25 µM

Alright, here's another molecule for you.
I am curious: what IC50 value has been reported for C=CC(=O)Nc1cc(Nc2ncc(Cl)c(Nc3ccccc3P(C)(C)=O)n2)c(OC)cc1OCC1CCCCN1C (stereo not shown) [Example 7] ?
< 0.05 µM

----------
Target: EGFR L858R/T790M (Homo sapiens, UniProt P00533, L858R/T790M)
Test: Kinase inhibitory activity against EGFR bearing the L858R/T790M double mutation
Assay type: biochemical
Conditions: EGFR L858R/T790M double mutation; 10 μM ATP; read-out: IC50 for kinase inhibition, EGFR L858R T790M
Protocol: Kinase inhibitory activity of the compounds was measured against human EGFR (native sequence) and against EGFR bearing the L858R mution and the L858R/T790M double mutation (EGFR, L858R, and L858R/T790M, respectively in Table 1). Additional assays can be conducted with EGFR deletion mutants such as delE746-A750 with or without the additional T790M mutation. Assay conditions included 10 pt curves with 3 μM top concentration (singlicates) and 10 μM ATP.
quantity: IC50

Example entries and their recorded answers appear below.
> print(dat)
                                   compound  quantity           reading
1  C=CC(=O)Nc1cc(Nc2ncc(Cl)c(Nc3ccccc3P(C)(C)=O)n2)c(OC)cc1C(=O)N1CCN(C)CC1      IC50         < 0.05 µM
2  C=C(CN1CCC(N2CCN(C)CC2)CC1)C(=O)Nc1ccc(OC)c(Nc2ncc(Cl)c(Nc3ccccc3P(C)(C)=O)n2)c1      IC50         < 0.05 µM
3  C=CC(=O)Nc1cc(Nc2ncc(Cl)c(Nc3ccccc3P(C)(C)=O)n2)c(OC)cc1N1CCC(N2CCN(C)CC2)C1 (stereo not shown)      IC50         < 0.05 µM
4  COc1ccc(NC(=O)C2=CCCN(C)C2)cc1Nc1ncc(Cl)c(Nc2ccccc2P(C)(C)=O)n1      IC50         < 0.05 µM
5  COc1ccc(NC(=O)/C=C\C(=O)O)cc1Nc1ncc(Cl)c(Nc2ccccc2P(C)(C)=O)n1      IC50  0.101 to 0.25 µM
6  COc1ccc(NC(=O)/C=C/C(=O)N2CCN(C)CC2)cc1Nc1ncc(Cl)c(Nc2ccccc2P(C)(C)=O)n1      IC50         < 0.05 µM

Now consider a different compound.
// IC50 lookup, key: C=CC(=O)Nc1cc(Nc2ncc(Cl)c(Nc3ccccc3P(C)(C)=O)n2)c(OC)cc1C#CCN(CC)CC
< 0.05 µM
